- System: SN12C renal
- test details: NCI-60 one-dose screen, 48 h
- particulars: 10 µM unless noted
The panel holds about 83,000 compounds, 20% with a hit somewhere; the sample as a whole holds those more often. Active and inactive are the calls of the source. The calls were made as follows: active = growth percent below 10; inactive = the rest.
The categories you may choose from are 1 (yes) (active), 0 (no) (inactive)

Below, 5 molecules whose answers are already recorded.
molecule | class name
CCCCCCC(=O)NC1=C(N2CC2)C(=O)C(NC(=O)CCCCCC)=C(N2CC2)C1=O | 0 (no)
C[C@]12C[C@@H](CO)[C@H](O)C[C@@H]1CC[C@@H]1[C@@H]2CC[C@]2(C)[C@@H](O)CC[C@@H]12 | 0 (no)
CC(=O)OC1CCC2(C)C(CCC3C2CC(=O)C2(C)C3CC(Sc3ccc(N(CCCl)CCCl)cc3)C2C(C)=O)C1 (stereo not drawn) | 0 (no)
CN1CCC(O)(c2ccc(F)cc2)C(C(=O)c2ccc(F)cc2)C1 (stereo not drawn) | 0 (no)
O=C(c1ccccc1O)c1[nH]c(Cl)c(Cl)c1-n1c(C(=O)c2ccccc2O)cc(Cl)c1Cl | 1 (yes)

Query string: Give the logged outcome of this assay for the following molecule: N#Cc1c(Br)n(C2OC(CO)C(O)C2O)c2ncnc(N)c12 (stereo not drawn)
Result string: 0 (no)

Query string: Could you check what this test reported for OCc1ccc2c(c1)OCO2 ?
Result string: 0 (no)

Query string: Look up the recorded call for Cc1cc(N(CCCl)CCCl)ccc1/C=N\NC(=O)c1ccncc1 in this test.
Result string: 0 (no)

Query string: GET /call?item= CC(=O)O[C@H](C[C@H](C(C)C)N(C)C(=O)[C@@H](NC(=O)[C@H]1CCCCN1C)C(C)C)c1nc(C(=O)N[C@@H](Cc2ccccc2)C[C@H](C)C(=O)O)c(C)s1 returns the recorded outcome of this test.
Result string: 0 (no)

Query string: What classification did COC(=O)[C@@H](C)C[C@H](Cc1ccccc1)NC(=O)c1csc([C@@H](C[C@H](C(C)C)N(C)C(=O)[C@@H](NC(=O)[C@H]2CCCN2C)C2CC2)OC(C)=O)n1 end up with in this test?
Result string: 0 (no)

Query string: Hi team, can someone confirm the assay call for CNCc1cccnc1 ?
Result string: 0 (no)

Query string: # fetch the recorded call for N#CC1C(C#N)C2CCC1C1C2N1c1ccccc1 (stereo not drawn) here
Result string: 0 (no)

====

- System: SK-MEL-5 melanoma
- test details: NCI-60 one-dose screen, 48 h (100 = growth as untreated, 0 = no growth, -100 = all killed)
- particulars: 10 µM unless noted
About 83,000 compounds went through this panel and 20% of them were active in at least one assay; those are over-represented in the sample as a whole.
So I've got a bunch of compounds here, and I need their growth values.
Answers are plain numbers, in %.

compound | growth / %
Nc1ccc(OCCNS(=O)(=O)c2cccc(S(=O)(=O)F)c2)c(Cl)c1 | 97.1
CCOP(=O)(Cc1ccc(C#N)cc1)OCC | 104
CN(C)C(=O)Oc1ccccc1 | 113
CN1CCCCC1C(C)(O)c1ccccc1 (stereo not given) | 104

Turning to the following compound.
Query string: So what does the record say about growth for CC[C@H](C)[C@H](NC(=O)[C@H]1CCCCN1C)C(=O)N(C)[C@H](C[C@@H](O)c1nc(C(=O)N[C@@H](Cc2ccccc2)C[C@H](C)C(=O)O)cs1)C(C)C ?
Result string: 63.7
